Target: Beta-lactamase (Klebsiella oxytoca)
Sequence (whole entry): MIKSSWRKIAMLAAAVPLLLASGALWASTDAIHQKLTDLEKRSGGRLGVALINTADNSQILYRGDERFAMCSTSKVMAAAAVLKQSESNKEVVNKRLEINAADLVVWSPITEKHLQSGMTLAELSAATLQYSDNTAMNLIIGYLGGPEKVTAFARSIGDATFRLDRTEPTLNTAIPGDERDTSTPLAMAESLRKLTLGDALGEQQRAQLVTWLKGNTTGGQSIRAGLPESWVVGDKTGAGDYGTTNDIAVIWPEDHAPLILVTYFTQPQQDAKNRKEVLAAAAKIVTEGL
Experiment: Ratio of Kcat to Km of Klebsiella oxytoca beta-lactamase K1 assessed as drug hydrolysis by spectrophotometry relative to cephaloridine
Design: scale not given: the % may be the effect or the level left
Label rule, in plain words: Activity of 2% and up is label 1, under 2% is label 0.

Some solved entries appear below for comparison.
{"columns": ["chemical_smiles", "class"],
 "data": [
  ["CO/N=C(\\C(=O)N[C@@H]1C(=O)N2C(C(=O)O)=C(COC(C)=O)CS[C@H]12)c1csc(N)n1", "label 1"],
  ["CO/N=C(\\C(=O)N[C@@H]1C(=O)N2C(C(=O)[O-])=C(C[N+]3(C)CCCC3)CS[C@H]12)c1csc(N)n1", "label 0"],
  ["CC(C)(O/N=C(\\C(=O)N[C@@H]1C(=O)N2C(C(=O)[O-])=C(C[n+]3ccccc3)CS[C@H]12)c1csc(N)n1)C(=O)O", "label 0"],
  ["Nc1nc(/C(=N/O)C(=O)N[C@@H]2C(=O)N3C(C(=O)O)=C(/C=C4\\CCN([C@@H]5CCNC5)C4=O)CS[C@H]23)ns1", "label 1"]
]}

// query Hi, just wondering whether CC1(C)S[C@@H]2[C@H](NC(=O)Cc3ccccc3)C(=O)N2[C@H]1C(=O)O shows Activity of 2% or higher.
// result label 1
